Hello, the source for this data is patent US6150335A, in case you need it.

Listing: GPI/MVD IC50 ratio of selected compounds
Tested on: mouse vas deferens (MVD)
EXPERIMENT_SUMMARY: Mouse vas deferens (MVD) bioassay: inhibition of electrically evoked contractions
Assay type: cell-based
APPLIED_CONDITIONS: ratio of GPI IC50 to MVD IC50

COMPOUND	ENDPOINT_VALUE
CCOC(=O)C(CNC(=O)[C@@H]1Cc2ccccc2CN1C(=O)[C@@H](N)Cc1ccc(O)cc1)c1ccccc1 (single isomer, unassigned) [Example 15]	>7810
N[C@@H](Cc1ccc(O)cc1)C(=O)N1Cc2ccccc2C[C@H]1C(=O)NCC(CO)c1ccccc1 (single isomer, unassigned) [Example 28]	> 108
N[C@@H](Cc1ccc(O)cc1)C(=O)N1Cc2ccccc2C[C@H]1C(=O)NCC(c1ccc(Cl)cc1)c1ccc(Cl)cc1	> 25.2

Continue with the next compound.
INPUT: Checklist item: GPI/MVD IC50 ratio tested on mouse vas deferens (MVD), entry `N[C@@H](Cc1ccc(O)cc1)C(=O)N1Cc2ccccc2C[C@H]1C(=O)NCCc1ccccc1-c1ccccc1` , value?
OUTPUT: > 23.9
